Molecular target: T1, HER2 receptor on the surface of NCI-N87 cells (human, UniProt P04626 23-1255)
T1 construct: whole, on cells; also called HER2 on tumor cell surface
Assay: flow cytometry on NCI-N87 cells, PE-labelled secondary antibody
measurementLabel: Max MFI
Give a plain numeric answer without units written out.

Data request: Record request: Max MFI value, item HER2 VHH-FC1 fusion protein 1-G07 (Fc fusion, 25; also called 1-G07-FC1; chimeric nanobody 1-G07) QVQLVESGGGKAQPGGSLRLSCVASRITFRHYDLSWYRQAPGQERELVATVTNGGVITYADSVKGRFTISRDNAKNTVQLQMNNLKPEDTAVYYCNAVWVYLQRLTQNKKENDYWGPGTQVTVSSEPKSSDKTHTCPPCPAPEFEGGPSVFLFPPKPKDTLMISRTPEVTCVVVDVSHEDPEVKFNWYVDGVEVHNAKTKPREEQYNSTYRVVSVLTVLHQDWLNGKEYKCKVSNKALPASIEKTISKAKGQPREPQVYTLPPSRDELTKNQVSLTCLVKGFYPSDIAVEWESNGQPENNYKTTPPVLDSDGSFFLYSKLTVDKSRWQQGNVFSCSVMHEALHNHYTQKSLSLSPGK
Data returned: 250000

Data request: Recorded Max MFI for HER2 VHH-FC1 fusion protein 1-C10 (Fc fusion, 25; also called 1-C10-FC1; chimeric nanobody 1-C10) QVQLVESGGDLVQPGGSLRLSCATSGLTFRRYELKWYRQAPGKERELVAGITPASGSRNYADSVKGRFTISRDDAKMTVYLQMNSLEPEDTAVYYCNAYWMIPQHIENNYWGKGTLVTVSSEPKSSDKTHTCPPCPAPEFEGGPSVFLFPPKPKDTLMISRTPEVTCVVVDVSHEDPEVKFNWYVDGVEVHNAKTKPREEQYNSTYRVVSVLTVLHQDWLNGKEYKCKVSNKALPASIEKTISKAKGQPREPQVYTLPPSRDELTKNQVSLTCLVKGFYPSDIAVEWESNGQPENNYKTTPPVLDSDGSFFLYSKLTVDKSRWQQGNVFSCSVMHEALHNHYTQKSLSLSPGK , please?
Data returned: 240000

Data request: Which Max MFI is listed for HER2 VHH-FC1 fusion protein 1-C09 (Fc fusion, 25; also called 1-C09-FC1; 1-C9-FC1) DVQLVESGGGLVQPGGSLRLSCEASGLTFRRYHFSWYRQPPGKERELVAVISDTGSTTNYTDSVKGRFTISRDLARNTVFLQLNSLKPDDTAVYYCNAKWPIIAADWWGQGTQVTVSSEPKSSDKTHTCPPCPAPEFEGGPSVFLFPPKPKDTLMISRTPEVTCVVVDVSHEDPEVKFNWYVDGVEVHNAKTKPREEQYNSTYRVVSVLTVLHQDWLNGKEYKCKVSNKALPASIEKTISKAKGQPREPQVYTLPPSRDELTKNQVSLTCLVKGFYPSDIAVEWESNGQPENNYKTTPPVLDSDGSFFLYSKLTVDKSRWQQGNVFSCSVMHEALHNHYTQKSLSLSPGK ?
Data returned: 269000

Data request: Item under review: HER2 VHH-FC1 fusion protein 1-B05 (Fc fusion, 25; also called 1-B05-FC1; chimeric nanobody 1-B05) AVQLVESGGGPGGSLRLSCAASGITFFRHTLGWYRQAPGKQRELVASITGGESTNYADSVKSRFTISRDNAKNMVFLQMNSLKPEDTALYYCNSKWDAAGVEFWGKGTLVTVSSEPKSSDKTHTCPPCPAPEFEGGPSVFLFPPKPKDTLMISRTPEVTCVVVDVSHEDPEVKFNWYVDGVEVHNAKTKPREEQYNSTYRVVSVLTVLHQDWLNGKEYKCKVSNKALPASIEKTISKAKGQPREPQVYTLPPSRDELTKNQVSLTCLVKGFYPSDIAVEWESNGQPENNYKTTPPVLDSDGSFFLYSKLTVDKSRWQQGNVFSCSVMHEALHNHYTQKSLSLSPGK . Reported Max MFI?
Data returned: 245000
